Could you please report measured inhibition at 1 µM for the items listed next?
Biological target: FAAH (Mus musculus (Mouse), UniProt O08914)
Sequence (O08914 whole entry): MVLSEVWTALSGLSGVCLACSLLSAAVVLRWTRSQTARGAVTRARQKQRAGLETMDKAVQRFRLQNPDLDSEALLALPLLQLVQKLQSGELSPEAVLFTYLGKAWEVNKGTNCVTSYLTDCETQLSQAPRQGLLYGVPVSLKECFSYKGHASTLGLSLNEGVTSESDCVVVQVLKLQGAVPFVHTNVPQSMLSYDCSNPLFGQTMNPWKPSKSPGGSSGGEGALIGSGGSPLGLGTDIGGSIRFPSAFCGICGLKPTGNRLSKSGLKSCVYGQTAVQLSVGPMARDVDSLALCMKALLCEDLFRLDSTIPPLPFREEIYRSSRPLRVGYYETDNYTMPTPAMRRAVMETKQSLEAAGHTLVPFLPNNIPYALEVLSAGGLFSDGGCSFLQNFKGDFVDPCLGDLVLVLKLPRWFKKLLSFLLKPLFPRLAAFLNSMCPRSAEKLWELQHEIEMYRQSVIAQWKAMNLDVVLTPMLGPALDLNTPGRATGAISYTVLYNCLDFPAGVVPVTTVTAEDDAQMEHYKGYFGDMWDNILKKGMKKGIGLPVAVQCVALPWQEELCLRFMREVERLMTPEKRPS
Assay: In vitro competitive activity-based protein profiling, mouse proteomes (brain membrane fraction or cell lysates)
Type: biochemical
Conditions: mouse proteome, read-out: FAAH % inh. 1 μM (mouse)
Method: In Vitro Competitive Activity-Based Protein Profiling. Proteomes (mouse brain membrane fraction or cell lysates for mouse assays; human prefrontal cortex or PC3 cell membrane fractions for human assays) (50 μL, 1.0 or 2.0 mg/mL total protein concentration) were preincubated with varying concentrations of inhibitors at 37° C. […] Following gel imaging, serine hydrolase activity was determined by measuring fluorescent intensity of gel bands corresponding to MAGL and FAAH using ImageJ 1.43u software.

Observe how each entry below is paired with its result.
Value of measured inhibition at 1 µM for the entry CS(=O)(=O)Nc1ccn(C(=O)N2CC3CN(Cc4ccc(Cl)c(N5CC6COCC6C5)c4)CC3C2)n1 (stereo not shown) : 0 to 25%

Notebook: CS(=O)(=O)Nc1ccn(C(=O)N2CCN(Cc3ccc(Cl)c(N4CC[C@H](F)C4)c3)CC2)n1 , inhibition at 1 µM read as 0 to 25%

Value of inhibition at 1 µM reported for the compound CC(=O)Nc1ccn(C(=O)N2CCC3(CCCN3Cc3cc4cc(Cl)cc(Cl)c4[nH]3)CC2)n1 is 25 to 50%

Continuing:
The recorded inhibition at 1 µM for CS(=O)(=O)Nc1ccn(C(=O)N2CCC3(CCN(Cc4cccc(Cl)c4)C3)CC2)n1 is 0 to 25%

====

Could you please report measured inhibition at 1 µM for the items listed next?
Molecular target: FAAH (Mus musculus (Mouse), UniProt O08914)
Assay: In vitro competitive activity-based protein profiling, mouse proteomes (brain membrane fraction or cell lysates)
Type: biochemical
Conditions: mouse proteome, read-out: FAAH % inh. 1 μM (mouse)

The cases that follow already have their inhibition at 1 µM on record.
I looked up CC(=O)Nc1ccn(C(=O)N2CC3CN(Cc4ccc(N5CCOCC5)c(C(F)(F)F)c4)CC3C2)n1 (centres unmarked) and its inhibition at 1 µM for FAAH (Mus musculus (Mouse), UniProt O08914) was 50 to 75%

Entry Cc1cc(CN2CCCC23CCN(C(=O)n2ccc(NC(=O)C4CC4)n2)CC3)ccc1Cl , tested on FAAH (Mus musculus (Mouse), UniProt O08914), has a reported inhibition at 1 µM of 0 to 25%

CS(=O)(=O)Nc1ccn(C(=O)N2CCC(Oc3ccc(C(F)(F)F)c(OC4CCCC4)c3)CC2)n1 on FAAH (Mus musculus (Mouse), UniProt O08914) gives inhibition at 1 µM = 0 to 25%

inhibition at 1 µM on FAAH (Mus musculus (Mouse), UniProt O08914) for Cc1nc(Cl)ccc1CN1CCN(C(=O)n2ccc(NS(C)(=O)=O)n2)CC1 is 0 to 25%

# CC1(N(CC(=O)O)Cc2ccc(C(F)(F)F)cc2N2CCCC2)CCN(C(=O)n2ccc(NS(C)(=O)=O)n2)CC1 with FAAH (Mus musculus (Mouse), UniProt O08914): inhibition at 1 µM is 0 to 25%

FAAH (Mus musculus (Mouse), UniProt O08914) inhibition at 1 µM of CS(=O)(=O)Nc1ccn(C(=O)N2CCN(Cc3cc4ccccc4[nH]3)CC2)n1 is 0 to 25%

Batch lookup, inhibition at 1 µM per entry.
1. CS(=O)(=O)Nc1ccn(C(=O)N2CC3CN(Cc4ccc(Oc5ccc(Cl)cc5)cc4)CC3C2)n1 (centres unmarked)
2. CC(=O)Nc1ccn(C(=O)N2CCN(Cc3ccc(Cl)cc3OCCCC(=O)O)CC2)n1

-- reply
> 75%
0 to 25%

====

Biological target: FAAH (Mus musculus (Mouse), UniProt O08914)
Test: In vitro competitive activity-based protein profiling, mouse proteomes (brain membrane fraction or cell lysates)
Type: biochemical
Conditions: mouse proteome, read-out: FAAH % inh. 1 μM (mouse)
Attribute measured: inhibition at 1 µM

Use the examples below as a reference point.
Form: compound = CS(=O)(=O)Nc1ccn(C(=O)N2CCC(Oc3ccc(C(F)(F)F)cc3-c3nccs3)CC2)n1 [Example 15] ; inhibition at 1 µM = 25 to 50%

The compound listed as CC(=O)Nc1ccn(C(=O)N2CC3CN(Cc4ccc(Cl)c(C5(O)CCCC5)c4)CC3C2)n1 (stereo not drawn) [Example 24] has a reported inhibition at 1 µM of 0 to 25%

Entry Cc1c(CN2CCN(C(=O)n3ccc(NS(C)(=O)=O)n3)CC2)[nH]c2c(Cl)cccc12 [Example 65] ; inhibition at 1 µM = 0 to 25%

Give inhibition at 1 µM for each of the items listed below.
1. CC(=O)Nc1ccn(C(=O)N2CCC3(CCCN3Cc3cc4cc(Cl)c(Cl)cc4[nH]3)CC2)n1 [Example 43]
2. CC(=O)Nc1ccn(C(=O)N2CCC3(CCN(Cc4cc(C(F)(F)F)cc(C5(C(=O)O)CCCC5)c4)C3)CC2)n1 [Example 25]
3. CC(=O)Nc1ccn(C(=O)N2C[C@H]3C[C@H](N(C)Cc4ccccc4Cl)C[C@H]3C2)n1 [Example 36]
4. CS(=O)(=O)Nc1ccn(C(=O)N2CCN(Cc3sc4ccccc4c3Cl)CC2)n1 [Example 70]
5. CS(=O)(=O)Nc1ccn(C(=O)N2CC3CN(Cc4cccc(Oc5ccc(Cl)cc5)c4)CC3C2)n1 (stereo not drawn) [Example 41]

-- reply
1. 0 to 25%
2. 0 to 25%
3. > 75%
4. 0 to 25%
5. > 75%

====

Biological target: MAGL (Mus musculus (Mouse), UniProt O35678)
Sequence (O35678 whole entry): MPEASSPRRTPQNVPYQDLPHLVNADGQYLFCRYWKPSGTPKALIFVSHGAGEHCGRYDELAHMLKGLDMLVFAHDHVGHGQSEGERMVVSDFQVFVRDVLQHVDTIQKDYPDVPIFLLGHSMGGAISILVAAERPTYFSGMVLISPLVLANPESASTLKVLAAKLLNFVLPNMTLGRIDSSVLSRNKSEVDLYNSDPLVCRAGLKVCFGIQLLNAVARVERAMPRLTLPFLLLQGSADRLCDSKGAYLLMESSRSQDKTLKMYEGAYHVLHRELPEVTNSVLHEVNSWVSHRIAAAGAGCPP
Experiment: In vitro competitive activity-based protein profiling, mouse proteomes (brain membrane fraction or cell lysates)
Type: biochemical
Conditions: mouse proteome, read-out: MAGL % inh. 1 μM (mouse)
Attribute measured: inhibition at 1 µM

Take a look at these entries with their results.
Recorded result, CC(=O)Nc1ccn(C(=O)N2CC3CN(Cc4cc(Cl)cc(N5CCCC5)c4)CC3C2)n1 (stereo not shown) [Example 172] , inhibition at 1 µM: > 75%

// recorded inhibition at 1 µM for CC(=O)Nc1ccn(C(=O)N2CCC(C)(N(C)Cc3cc(C(F)(F)F)cc(C4(C(=O)O)CCCC4)c3)CC2)n1 [Example 132] : > 75%

Kindly note the recorded inhibition at 1 µM for C[C@@H]1CN(C(=O)n2ccc(NS(C)(=O)=O)n2)CCN1Cc1ccc(Cl)c(N2CCC(F)CC2)c1 [Example 138] , which is > 75%

// field: inhibition at 1 µM; key: CC(=O)Nc1ccn(C(=O)N2CCC3(CCCN3C(=O)c3ccc(Cl)c(C4CC4)c3)CC2)n1 [Example 20] ; value = > 75%

Lab book: inhibition at 1 µM of CC(=O)Nc1ccn(C(=O)N2CCN(Cc3ccc(Cl)cc3NCC(=O)O)CC2)n1 [Example 108] noted as > 75%

I need inhibition at 1 µM for every entry listed below, if you could help.
1. CS(=O)(=O)Nc1ccn(C(=O)N2CCC3(CCN(Cc4cccc(Cl)c4)C3)CC2)n1 [Example 163]
2. CC(C)C(=O)Nc1ccn(C(=O)N2CCN(Cc3ccc(C(F)(F)F)cc3N3CCCC3)CC2)n1 [Example 161]

-- reply
0 to 25%
> 75%

====

Target: FAAH (Homo sapiens (Human), UniProt O00519)
Sequence (O00519 whole entry): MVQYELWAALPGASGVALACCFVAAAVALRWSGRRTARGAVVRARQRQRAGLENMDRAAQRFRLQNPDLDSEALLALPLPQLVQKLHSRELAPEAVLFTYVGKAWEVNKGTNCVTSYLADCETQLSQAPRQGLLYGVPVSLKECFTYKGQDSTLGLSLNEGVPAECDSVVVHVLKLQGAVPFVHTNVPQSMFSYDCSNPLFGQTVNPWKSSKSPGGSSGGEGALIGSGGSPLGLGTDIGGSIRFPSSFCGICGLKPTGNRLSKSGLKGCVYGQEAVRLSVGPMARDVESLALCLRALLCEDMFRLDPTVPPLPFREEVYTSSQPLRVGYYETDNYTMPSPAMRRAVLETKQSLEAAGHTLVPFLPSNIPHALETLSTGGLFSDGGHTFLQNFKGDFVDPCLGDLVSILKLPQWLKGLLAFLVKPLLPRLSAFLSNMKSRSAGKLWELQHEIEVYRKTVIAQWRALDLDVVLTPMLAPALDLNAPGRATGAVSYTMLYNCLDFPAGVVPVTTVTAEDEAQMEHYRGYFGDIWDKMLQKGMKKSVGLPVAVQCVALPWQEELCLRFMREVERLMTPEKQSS
Assay: In vitro competitive activity-based protein profiling, human proteomes (prefrontal cortex or PC3 cell membrane fractions)
Assay type: biochemical
Conditions: 1 μM, human proteome; read-out: FAAH % inh. 1 μM (human)
Experimental: In Vitro Competitive Activity-Based Protein Profiling. Proteomes (mouse brain membrane fraction or cell lysates for mouse assays; human prefrontal cortex or PC3 cell membrane fractions for human assays) (50 μL, 1.0 or 2.0 mg/mL total protein concentration) were preincubated with varying concentrations of inhibitors at 37° C. […] Following gel imaging, serine hydrolase activity was determined by measuring fluorescent intensity of gel bands corresponding to MAGL and FAAH using ImageJ 1.43u software.
I'd be grateful if you could share measured inhibition at 1 µM for these entries.

Given item CS(=O)(=O)Nc1ccn(C(=O)N2CCC(Oc3ccc(C(F)(F)F)c(N4CCC(F)CC4)c3)CC2)n1 [Example 109] , the value recorded as its inhibition at 1 µM is 0 to 25%

According to the records, this compound CN(Cc1ccc(C(F)(F)F)nc1N1CCCC1)C1(C)CCN(C(=O)n2ccc(NS(C)(=O)=O)n2)CC1 [Example 91] displays inhibition at 1 µM of 25 to 50%

Just so you know, measured inhibition at 1 µM for CC(=O)Nc1ccn(C(=O)N2CCN(Cc3cc(Cl)cc(Cl)c3)CC2)n1 [Example 144] came out at 0 to 25%

Short answer for CS(=O)(=O)Nc1ccn(C(=O)N2CCN(Cc3ccc(Cl)c(N4C[C@H]5C[C@@H]4CO5)c3)CC2)n1 [Example 157] : inhibition at 1 µM was 0 to 25%

Looking up CS(=O)(=O)Nc1ccn(C(=O)N2CC3CN(Cc4cccc(C(F)(F)F)c4)CC3C2)n1 (centres unmarked) [Example 114] , I see its inhibition at 1 µM listed as 25 to 50%

Entry CC(=O)Nc1ccn(C(=O)N2CC3CN(Cc4ccc(N5CCCC5)cc4Cl)CC3C2)n1 (centres unmarked) [Example 169] ; inhibition at 1 µM = 50 to 75%

Reported inhibition at 1 µM of CC(=O)Nc1ccn(C(=O)N2CC3CN(Cc4ccc(N5CCCC5)cc4C(F)(F)F)CC3C2)n1 (centres unmarked) [Example 121] : > 75%

---
Entry CC(=O)Nc1ccn(C(=O)N2CCC3(CCCN3C(=O)c3ccc(Cl)c(C)c3)CC2)n1 [Example 84] , inhibition at 1 µM reported as 0 to 25%
